# Read-out: Interferon-gamma inducible Protein 10 (IP10), CXCL10 (gene 3627)
# protocol: BSK_KF3CT_IP10: BioMAP Diversity Plus: KF3CT Assay for Interferon-gamma inducible Protein 10 (IP10) Biomarker Activity (AID 2283068)
# assay conditions: primary human keratinocytes with fibroblasts; actives raise or lower the signal
The source made the active and inactive calls. The calls were made as follows: active = hit-call score of the fitted dose curve at least 0.9, where 1 is the maximum; inactive = score below 0.9.
Pick one and only one: active, inactive

Some entries whose results are on file:
Req: In this assay, the call recorded for FC(F)(F)COC(OCC(F)(F)F)OCC(F)(F)F was what?
Resp: inactive

Req: In this assay, the call recorded for Nc1ccn([C@@H]2O[C@H](CO)[C@@H](O)[C@@H]2O)c(=O)n1 was what?
Resp: inactive

Req: In this assay, the call recorded for O=C(O)c1ccc2c(c1)nc(C(=O)NC1CCN(C3CC3)CC1)n2Cc1cc(-c2ccc(Cl)s2)on1 was what?
Resp: inactive

Req: In this assay, the call recorded for CCOC(N)=O was what?
Resp: inactive

Req: In this assay, the call recorded for Cc1nccn1-c1ccc(Sc2cccc(C3(C(N)=O)CCOCC3)c2)cc1 was what?
Resp: inactive

Req: In this assay, the call recorded for Cc1nc(-c2ccccn2)ncc1C(=O)Nn1cc(C)c2cc(F)ccc21 was what?
Resp: inactive

Req: In this assay, the call recorded for S=P(N1CC1)(N1CC1)N1CC1 was what?
Resp: inactive

Req: In this assay, the call recorded for FC(F)C(F)(F)COCC1CO1 (stereo not drawn) was what?
Resp: inactive

Further cases:
Req: In this assay, the call recorded for OCCC(F)(F)C(F)(F)C(F)(F)C(F)(F)F was what?
Resp: inactive

Req: In this assay, the call recorded for CCc1cccc(CC)c1N was what?
Resp: inactive

Req: In this assay, the call recorded for CNC(C)=O was what?
Resp: inactive

Recorded values, source PubChem BioAssay (EPA / NIEHS).
